These data points were gathered from ChEMBL document CHEMBL4715736.

Tested on: MDA-MB-435
Experiment: Growth inhibition of human MDA-MB-435 cells assessed as cell growth at 0.01 uM incubated for 48 hrs by sulforhodamine B assay relative to control
Format: functional
Details: read-out: Activity
So I've got a bunch of molecules here, and I need their growth at 0.01 µM values.
Give the figure together with its unit, number first.

[
  {
    "chem smiles": "Cc1cc(C)c(NC(=O)c2sc3nc4c(cc3c2N)CN(Cc2ccccc2)CC4)c(C)c1",
    "growth at 0.01 µM": "92%"
  },
  {
    "chem smiles": "CCc1cccc(C)c1NC(=O)c1sc2nc3c(cc2c1N)C(=O)CCC3",
    "growth at 0.01 µM": "92%"
  },
  {
    "chem smiles": "COc1cccc(NC(=O)c2sc3nc4c(cc3c2N)CN(Cc2ccccc2)CC4)c1",
    "growth at 0.01 µM": "93%"
  },
  {
    "chem smiles": "Cc1cccc(NC(=O)c2sc3nc4c(cc3c2N)C(=O)CCC4)c1",
    "growth at 0.01 µM": "87%"
  },
  {
    "chem smiles": "CN1CCc2nc3sc(C(N)=O)c(N)c3c(-c3cccs3)c2C1",
    "growth at 0.01 µM": "95%"
  },
  {
    "chem smiles": "Nc1c(C(=O)Nc2ccccc2)sc2nc3c(cc12)CN(Cc1ccccc1)CC3",
    "growth at 0.01 µM": "93%"
  },
  {
    "chem smiles": "CCc1ccccc1NC(=O)c1sc2nc3c(cc2c1N)C(=O)CCC3",
    "growth at 0.01 µM": "92%"
  }
]

Now for another entry.
// query Quote growth at 0.01 µM reported for `Cc1ccc(NC(=O)c2sc3nc4c(cc3c2N)C(=O)CCC4)cc1C` please.
// result 95%
